Where do these numbers come from? They come from the supplement of paper PMC10567573.

assay: protein stability index of a GFP-peptide fusion (GPS, HEK-293T) (PSI 1-6); higher = more stable; settings: treatment: DMSO; c terminus: a fixed tail appended;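 further: 24-mer peptide tiles fused after GFP, lentivirally expressed, FACS-sorted into six equal bins by GFP/DsRed ratio, decoded by Illumina sequencing, PSI is the read-weighted mean bin number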
reported-property: protein stability index
Response field accepts a number only; no unit should be typed.

Study these solved cases before continuing.
> print(dat)
                     chain.sequence        reported.property  value
1   KNWWVRGILTLAMIAFFFIIIYLG [CDS2]  protein stability index   3.07
2  FCQMLAVVETINAAIGVTTSPVLP [HACD3]  protein stability index   2.69
3  ESEEEGPWEPPVLPILTWPVLQSR [HDAC6]  protein stability index    4.5

Reported protein stability index for LWEAEDRQNVPRKVPNHYIAIPEW [CPXM2] : what is it?
3

Reported protein stability index for DGLKRRQQLEEELLRAKIEVEKLK [RAD54B] : what is it?
4.67

Reported protein stability index for ATHILVRQQGNPGHRSIYLALKLP [ADAMTS4] : what is it?
2.92

Reported protein stability index for RNRLAATKCRKRKLERIARLEDKV [JUNB] : what is it?
3.78

Reported protein stability index for SVVTEDGPEPKDKGSLPQPPITEV [ZNF232] : what is it?
5.5

Reported protein stability index for RPWADTCSSSGKDGNLCLHVPNPP [HESX1] : what is it?
3.48

Reported protein stability index for MAQSRDGGNPFAEPSELDNPFQDP [SCAMP3] : what is it?
5.19

Reported protein stability index for GIREASSGGGGSSSNFHINVEESV [KRT15] : what is it?
4.92

---

experiment: protein stability index of a GFP-peptide fusion (GPS, HEK-293T) (PSI 1-6); higher = more stable; details: treatment: MLN4924 1 uM, 8 h; c terminus: a fixed tail appended
Assign class by protein stability index: not lower than 4 means yes; lower than 4 means no.

Use these answered entries as a reference point.
> print(dat)
                        chain.sequence  category.label
1      QPLSPASSSYSVSSPRSVDSYSST [ATF6]             yes
2      VPQALSATTYKHGVLTRKTHADMD [PSD2]             yes
3  SGSLITAGRIDREELCAQSARCVV [PCDHGA10]              no
4     DHQTLLSAAHEVELQRQKEAEKLE [NOP53]             yes
5    MSASLNYKSFSKEQQTMDNLEKQL [TRIM55]             yes
6     PTQVPAAEDYLTWKEWGFTGVQEV [SPAG8]              no
7  MDTAMEVVKFVNFLLVNGFQTAID [TRAF3IP2]              no
8   EVEVVEEAKCCCFFKRKRKKTAQR [CSNK1G1]             yes

State whether the measured protein stability index reaches 4, counting equality as reaching it, for KIRRGQFCIPEHISPKARCLIRSL [TRIB1]
no

State whether the measured protein stability index reaches 4, counting equality as reaching it, for LWRSRVVPDREEGGSGGGGGGDED [SMAD6]
yes

State whether the measured protein stability index reaches 4, counting equality as reaching it, for LIQPINHTTLQCLAARVIVNHRIY [FEM1C]
no

State whether the measured protein stability index reaches 4, counting equality as reaching it, for LDLKRQYDRVAQLDQLLHYRKKSA [CHGB]
no

State whether the measured protein stability index reaches 4, counting equality as reaching it, for IINTKKLSARDHQKLEREARICRL [CAMK2A]
no

State whether the measured protein stability index reaches 4, counting equality as reaching it, for VLETKWELLQQLDLNNCKNNLEPI [KRT71]
no

State whether the measured protein stability index reaches 4, counting equality as reaching it, for VLMWTMLFLGQGIQVSLYCQEWYA [SOAT2]
no

State whether the measured protein stability index reaches 4, counting equality as reaching it, for AEKRKRQAEIENKRRQLEDERRQL [PALM]
yes

State whether the measured protein stability index reaches 4, counting equality as reaching it, for EWFQNCYARYHQAFADRDQSERQR [TEKT4]
no

State whether the measured protein stability index reaches 4, counting equality as reaching it, for SFLNVTKSSLIWSYPAGSLTFPVR [TRIM43]
no

State whether the measured protein stability index reaches 4, counting equality as reaching it, for MDIGQPKDFLTGMCLFLQSLRQKQ [GMPPB]
no

State whether the measured protein stability index reaches 4, counting equality as reaching it, for LFVNSHPGIDRPGMLCSFRIPGAW [DCAF4]
no

State whether the measured protein stability index reaches 4, counting equality as reaching it, for GLALESSSGLQDVTGPDNGVRESE [NFE2L1]
yes

State whether the measured protein stability index reaches 4, counting equality as reaching it, for SPMPYVKWMLGAEDLTPEDDMPIG [PTPRD]
yes

State whether the measured protein stability index reaches 4, counting equality as reaching it, for EECRMSGEFPSPVSISIISSTSGG [KRT71]
no

State whether the measured protein stability index reaches 4, counting equality as reaching it, for STLGTLQPPPAPPKKIMPEAHSHY [PPFIA4]
yes

State whether the measured protein stability index reaches 4, counting equality as reaching it, for DEPSKPTLALEYTYGRRAKGHNTP [DYNC2LI1]
yes

State whether the measured protein stability index reaches 4, counting equality as reaching it, for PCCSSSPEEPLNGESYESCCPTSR [FEM1A]
yes

State whether the measured protein stability index reaches 4, counting equality as reaching it, for LIDEKVLILHGGVSDITDLELLDK [PPEF2]
no

State whether the measured protein stability index reaches 4, counting equality as reaching it, for FVLNRLQYAIISEAWRLVEEGIVS [CRYL1]
no

State whether the measured protein stability index reaches 4, counting equality as reaching it, for QMPQEEVELLPPAPKGKGRKPAAG [BRD3]
yes

State whether the measured protein stability index reaches 4, counting equality as reaching it, for GWRSLWLGWGPTALRDVPFSALYW [SLC25A39]
no

State whether the measured protein stability index reaches 4, counting equality as reaching it, for RSREARSRLLLLEQELKTVTYSLL [SMAD6]
no

State whether the measured protein stability index reaches 4, counting equality as reaching it, for DPDGKKIKQIQQLFEEILSNSRQL [FBXO33]
no

State whether the measured protein stability index reaches 4, counting equality as reaching it, for LMGPSRMSLFSLYMVQDQHECILP [M1AP]
no

---

assay: protein stability index of a GFP-peptide fusion (GPS, HEK-293T) (PSI 1-6); higher = more stable; settings: treatment: MLN4924 1 uM, 8 h; c terminus: a fixed tail appended
Parameter protein stability index: see the listing below.
Response field accepts a number only; no unit should be typed.

Study these solved cases before continuing.
> print(dat)
                      chain.sequence  value
1  AVVAAGGGSSGQVTSNGSIGRDPP [CLPTM1]   4.88
2  LQNFSSSWSDGMAFCALVHSFFPD [SMTNL2]   2.42
3   LVDVACKHLTDTSHGVRNKCLQLL [INTS4]   2.46

Reported protein stability index for NDVKHHRWFRSVDWEAVPQRKLKP [PRKX] : what is it?
3.6

Reported protein stability index for TAVAQAPPAVASSSLFDLSVLKLH [SERTAD1] : what is it?
3.24

Reported protein stability index for FCISLLRERFMECLMIGRDLVRLL [INTS3] : what is it?
2.29

Reported protein stability index for SPPTRPVPGHRSERAIRTQPKQLI [SPRY1] : what is it?
4.05

Reported protein stability index for ALLADEERCLSCILAQQPDRLRDE [TRADD] : what is it?
4.3

---

Parameter protein stability index: see the listing below.
test: protein stability index of a GFP-peptide fusion (GPS, HEK-293T) (PSI 1-6); higher = more stable; conditions: treatment: DMSO; c terminus: a fixed tail appended
Response field accepts a number only; no unit should be typed.

Study these solved cases before continuing.
> print(dat)
                         chain.sequence  value
 1      NTSIRVADFGSATFDHEHHTTIVA [CLK3]   3.52
 2   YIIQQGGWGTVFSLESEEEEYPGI [BCL2L13]   2.46
 3  LREERGHPLHPRHRKAVHLRTRGR [C6orf223]   4.08
 4   IHIIDFGLAKEYIDPETKKHIPYR [CSNK1G3]    2.1
 5   KKEEPEPETEAVSSSQEIPTMPQP [ZMYND11]   5.45
 6       ALADVEVKYIVERTMLDFPQHVSS [NLN]   2.38
 7     GLSIPSHSSELTEQKLRACLEGSI [RPAIN]   3.63
 8   LLFCCQCVDVVFYNPDLKKVVEAH [RHOBTB3]    2.4
 9    HSLTPVSSDHLFLFGGFTTDKQPL [KLHDC2]   2.95
10    CYYQPAPYVSDGNFSNYYVAHPPV [TENT5C]   2.24

Reported protein stability index for VVLSDGPALHPAHAPQISYTGPSS [NCK2] : what is it?
3.13

Reported protein stability index for LEIDSGVITLDPQTASRSLVLSED [TRIM15] : what is it?
4.69
